system: KM12; assay: NCI tumour cell line growth inhibition, 48 h
Activity calls are given as the source filed them. Rule as the data show it: active = GI50 up to about 1.1 µM and inactive = higher.
Select the correct class. Options are active, inactive and nothing else.

Use the examples below as a reference point.
| Compound | Target | Assigned label |
| --- | --- | --- |
| O=C(Cc1nc2ccccc2c(=O)n1-c1ccccc1Cl)c1ccncc1 | KM12 | inactive |
| Cc1ccc(S(=O)(=O)C2c3nc4ccccc4cc3-c3nc4ccccc4nc32)cc1 (stereo not given) | KM12 | inactive |
| O=C1OCC=C1COC1OC(CO)C(O)C(O)C1O (stereo not given) | KM12 | inactive |
| C=C(/C=C/C=C(/CCC=C(C)C)COC(C)=O)[C@@H]1CC[C@]2([C@H](CCCO)/C(=C(/C)C=O)CC[C@]2(C)O)[C@@H]1O | KM12 | inactive |
| Cn1c2ccccc2c(=O)c2cccc(C(=O)NCC(=O)O)c21 | KM12 | inactive |

Problem: Answer briefly: the call reported for CCOC(=O)CCC(NC(=O)c1ccc(OCc2nc3ccccc3n3cccc23)cc1)C(=O)OCC (stereo not given) in this assay.
Result: inactive

Problem: Another: `Clc1cc(Cl)cc(/C=N/C23CC4CC(CC(C4)C2)C3)c1`
Result: inactive

Problem: Same again, this time with `O=C(O)CC12CC3CC(CC(O)(C3)C1)C2`
Result: inactive

Problem: And for `C/C=C/[C@@]1(OC(=O)c2ccccc2)C[C@@H]2CCCC[C@@H]21` ?
Result: inactive

Problem: One more compound: Cc1ccc(C(O)/C(=N/N)c2nc3ccc([N+](=O)[O-])cc3nc2O)cc1 (stereo not given)
Result: inactive

Problem: And the next one, O=C(O)CC(Sc1ccccc1)c1ccccc1 (stereo not given) ?
Result: inactive

Problem: Next up: CC(=O)OC1CC2C(C)(C)C(=O)C=C[C@]2(C)C2CCC3(C)C(c4ccoc4)C(=O)C4OC43[C@]12C (stereo not given in full)
Result: inactive

Problem: Would you kindly repeat that for Cc1ccc(C2=Nc3ccccc3SC(c3cccc4c3OCO4)C2)cc1 (stereo not given) ?
Result: inactive

###

test system: M14; experiment: NCI tumour cell line growth inhibition, 48 h
The source made the active and inactive calls. Cut-off read from the data, not from the text of the source: active = GI50 up to about 1.1 µM and inactive = higher.
Reply using exactly one outcome from 1 = active, 0 = inactive

| Molecule | Target | Assigned label |
| --- | --- | --- |
| O=[N+]([O-])C1=Cc2c(O)ccc(O)c2C2OC=CC12 (configuration not stated) | M14 | 0 |
| COc1ccc(-c2c(-c3ccccc3)c(C)c3ccccn23)cc1 | M14 | 0 |
| O=C1C(=Cc2ccccc2O)N=C(c2ccccc2)N1n1c(-c2ccccc2)nc2ccccc2c1=O | M14 | 0 |

Problem: Look up the recorded call for `Clc1sc(Cl)c2c1[C@H](Br)C[C@@H]2Cl` in this test.
Result: 0

Problem: What about `CNC(=O)c1cccc2c(Nc3ccc(NS(C)(=O)=O)cc3OC)c3cccc(C)c3nc12` ?
Result: 1

Problem: How about this molecule: `N/N=C1\CCCc2c1no[n+]2[O-]`
Result: 0

Problem: Same for `CCN(CC)CCN1c2ccccc2Sc2ccc3ccccc3c21`
Result: 0

Problem: Repeat with `CCOC(=O)c1cn(-c2ccc([N+](=O)[O-])cc2)c(=S)n2c1nc1ccccc12`
Result: 0

Problem: Follow-up entry: `CCOC(=O)c1ccc(-n2nnc(C(N)=O)c2O)cc1`
Result: 0

Problem: Would you mind doing CCCCCCCC1(N=[N+]=[N-])C(=O)c2ccccc2N(C)C1=O (configuration not stated) as well?
Result: 0

Problem: Please do the same for C=CCCCCCCCC(O)C1C[C@H](O)C(CCCCC)O1 (some centres not stated) as well.
Result: 0

Problem: Please answer likewise for COc1ccccc1N1C(=O)/C(=C\c2cccc(Oc3ccccc3)c2)SC1c1ccccc1 (configuration not stated)
Result: 0

Problem: Query `c1coc(-c2nccc3c2[nH]c2ccccc23)c1` next
Result: 0

Problem: Now this one: COc1cccc2c1OC(c1ccc(C#N)cc1)C([N+](=O)[O-])=C2 (configuration not stated)
Result: 0

Problem: Also O=C(O)CC(Sc1ccccc1)c1ccccc1 (configuration not stated) , if possible.
Result: 0

Problem: Also check CCOC(=O)CCC(NC(=O)c1ccc(OCc2nc3ccccc3n3cccc23)cc1)C(=O)OCC (configuration not stated)
Result: 0

Problem: Cool, now `COC(=O)N/N=C(\C)CC(=O)Nc1cccc([N+](=O)[O-])c1`
Result: 0

Problem: Request: `O=C(NCc1ccc2ccc3cccnc3c2n1)c1ccc[n+](Cc2ccccc2)c1`
Result: 0

Problem: What do you get for CC(NNC(=O)c1cc[n+]([BH2-]C#N)cc1)c1ccc(Cl)c(Cl)c1 (configuration not stated) ?
Result: 0

Problem: How about `O=c1ccc(=O)c2c1c1[nH]c3ccccc3c1c1c(=O)c3ccccc3c(=O)c21` ?
Result: 0

Problem: Repeat with `Nc1ccc(Oc2ccc(C34CC5CC(C3)CC(c3ccc(Oc6ccc(N)cc6)cc3)(C5)C4)cc2)cc1`
Result: 0

Problem: Similarly, `O=C1/C(=C/c2cccs2)NC(=S)N1CN1CCOCC1` ?
Result: 0
